molecular target: Prostacyclin Receptors (IP Receptors) of Human Thrombocyte Membranes (Homo sapiens); construct: Thrombocyte membranes are obtained by centrifuging 50 ml human blood; tissue Maco Pharma, Langen; test: Binding to prostacyclin receptors (IP receptors) of human thrombocyte membranes, 3H-Iloprost displacement; conditions: 3 nM 3H-Iloprost, 60 min, room temperature
Sequence (P43119 whole entry): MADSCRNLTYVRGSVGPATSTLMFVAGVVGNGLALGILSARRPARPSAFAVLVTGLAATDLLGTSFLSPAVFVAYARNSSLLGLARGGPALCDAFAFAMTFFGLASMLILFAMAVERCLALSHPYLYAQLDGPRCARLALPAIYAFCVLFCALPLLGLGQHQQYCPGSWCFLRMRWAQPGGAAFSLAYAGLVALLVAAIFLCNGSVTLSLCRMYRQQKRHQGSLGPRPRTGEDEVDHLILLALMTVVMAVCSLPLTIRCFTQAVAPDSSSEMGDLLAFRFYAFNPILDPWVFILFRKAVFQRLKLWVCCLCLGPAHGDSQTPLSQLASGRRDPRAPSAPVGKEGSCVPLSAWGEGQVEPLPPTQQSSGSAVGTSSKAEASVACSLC
A collection of molecules and their measured IC50

MOLECULE	TESTED TARGET	IC50 (nM)
COC(=O)CCCCCNC(=O)c1c(C)oc(-c2ccccc2)c1-c1ccc(OC)cc1	Prostacyclin Receptors (IP Receptors) of Human Thrombocyte Membranes (Homo sapiens)	470
COc1ccc(-c2c(-c3ccccc3)oc(C)c2C(=O)O[C@H](C)CCCCC(=O)O)cc1	Prostacyclin Receptors (IP Receptors) of Human Thrombocyte Membranes (Homo sapiens)	315
COc1ccc(-c2c(-c3ccccc3)oc(C)c2C(=O)N[C@H](C)CCCCC(=O)O)cc1	Prostacyclin Receptors (IP Receptors) of Human Thrombocyte Membranes (Homo sapiens)	670
COc1ccc(-c2c(-c3ccccc3)oc(C)c2C(=O)NC(C)CCCCC(=O)O)cc1 (stereo not drawn)	Prostacyclin Receptors (IP Receptors) of Human Thrombocyte Membranes (Homo sapiens)	476
COc1ccc(-c2c(-c3ccccc3)oc(C)c2C(=O)Nc2cccc(OCC(=O)O)c2)cc1	Prostacyclin Receptors (IP Receptors) of Human Thrombocyte Membranes (Homo sapiens)	438
CCc1ccc(-c2c(-c3ccccc3)oc(C)c2C(=O)NCCCCCC(=O)O)cc1	Prostacyclin Receptors (IP Receptors) of Human Thrombocyte Membranes (Homo sapiens)	138
